Target: T1, hCD71-Nluc fusion protein (human, UniProt P02786 1-760)
T1 construct: whole, on cells; Used as crude membrane fractions of HEK293 cells stably expressing hCD71-Nluc; also called human transferrin receptor, CD71, fused to NanoLuc; not shown: NanoLuc (ProMega) luciferase joined through its N-terminal Val
T1 sequence (P02786 other isoform, or with tags, fused parts or gaps): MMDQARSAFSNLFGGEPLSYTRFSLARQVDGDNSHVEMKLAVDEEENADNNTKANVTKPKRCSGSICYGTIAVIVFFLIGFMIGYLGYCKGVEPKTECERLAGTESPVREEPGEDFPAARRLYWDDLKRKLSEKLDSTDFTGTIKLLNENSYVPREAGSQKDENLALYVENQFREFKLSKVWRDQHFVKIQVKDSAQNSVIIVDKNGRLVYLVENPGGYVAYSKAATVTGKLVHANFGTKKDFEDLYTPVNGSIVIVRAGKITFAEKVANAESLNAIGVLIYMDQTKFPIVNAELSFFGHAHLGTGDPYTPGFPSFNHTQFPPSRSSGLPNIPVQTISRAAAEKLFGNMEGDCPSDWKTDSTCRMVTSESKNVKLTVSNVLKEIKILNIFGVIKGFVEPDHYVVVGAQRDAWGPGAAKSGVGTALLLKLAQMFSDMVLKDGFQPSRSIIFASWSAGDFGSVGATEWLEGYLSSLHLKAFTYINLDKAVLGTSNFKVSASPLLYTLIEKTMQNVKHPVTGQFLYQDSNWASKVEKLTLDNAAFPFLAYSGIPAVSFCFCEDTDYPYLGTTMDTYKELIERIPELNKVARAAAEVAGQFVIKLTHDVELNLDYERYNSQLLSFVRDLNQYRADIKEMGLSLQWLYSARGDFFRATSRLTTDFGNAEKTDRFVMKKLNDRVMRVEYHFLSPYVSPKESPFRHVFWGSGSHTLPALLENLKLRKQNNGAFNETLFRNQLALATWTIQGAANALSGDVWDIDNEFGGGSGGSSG
Experiment: nanoBRET competition, tracer BCY17871-1598988 60 nM, HEK293 hCD71-Nluc membranes
outcomeMeasure: Ki (nM)
Report as a plain number; the unit nM is understood.

binder: CSPDAHLGCISYCEPWX (not fully specified; as printed CSPDAHLGCISYCEPW[K(N3)]: N-terminal acetyl; C-terminal amide; three Cys bound to TATB scaffold; [K(N3)] 6-azido lysine at 17 joined via BCN linker to oligonucleotide 1609732, also called Compound No. 1609732 conjugated to BCY17873) [1609732-BCY17873]
unit: nM
Ki: 1
--
binder: NXNCSPDAHLGCISYCX (not fully specified; as printed N[dY]NCSPDAHLGCISYC[K(N3)]: N-terminal acetyl; C-terminal amide; three Cys bound to TATB scaffold; [dY] D-tyrosine at 2; [K(N3)] 6-azido lysine at 17 joined via BCN linker to oligonucleotide 1590463, also called Compound No. 1590463 conjugated to BCY17882) [1590463-BCY17882]
unit: nM
Ki: 3
--
binder: CSPDAHLGCISYCEXWX (not fully specified; as printed CSPDAHLGCISYCE[Pip]W[K(N3)]: N-terminal acetyl; C-terminal amide; three Cys bound to TATB scaffold; [Pip] pipecolic acid at 15; [K(N3)] 6-azido lysine at 17 joined via BCN linker to oligonucleotide 1590463, also called Compound No. 1590463 conjugated to BCY17894) [1590463-BCY17894]
unit: nM
Ki: 1

Moving on to the next binder.
// CPXDAYLGCXSYCEPWX (not fully specified; as printed CP[HyP]DAYLGC[tBuGly]SYCEPW[K(N3)]: N-terminal acetyl; C-terminal amide; three Cys bound to TATB scaffold; [HyP] 4-trans-hydroxy-L-proline at 3; [tBuGly] t-butyl glycine at 10; [K(N3)] 6-azido lysine at 17 joined via BCN linker to oligonucleotide 1590463, also called Compound 1590463-BCY17901; Compound No. 1666846) [1590463-BCY17901] : Ki value = 0.3
